Item-by-item account of inhibition at 100 µM
Target: α-glucosidase (Saccharomyces cerevisiae)
Construct: purchased Sigma-Aldrich Inc
Sequence (P53341 whole entry): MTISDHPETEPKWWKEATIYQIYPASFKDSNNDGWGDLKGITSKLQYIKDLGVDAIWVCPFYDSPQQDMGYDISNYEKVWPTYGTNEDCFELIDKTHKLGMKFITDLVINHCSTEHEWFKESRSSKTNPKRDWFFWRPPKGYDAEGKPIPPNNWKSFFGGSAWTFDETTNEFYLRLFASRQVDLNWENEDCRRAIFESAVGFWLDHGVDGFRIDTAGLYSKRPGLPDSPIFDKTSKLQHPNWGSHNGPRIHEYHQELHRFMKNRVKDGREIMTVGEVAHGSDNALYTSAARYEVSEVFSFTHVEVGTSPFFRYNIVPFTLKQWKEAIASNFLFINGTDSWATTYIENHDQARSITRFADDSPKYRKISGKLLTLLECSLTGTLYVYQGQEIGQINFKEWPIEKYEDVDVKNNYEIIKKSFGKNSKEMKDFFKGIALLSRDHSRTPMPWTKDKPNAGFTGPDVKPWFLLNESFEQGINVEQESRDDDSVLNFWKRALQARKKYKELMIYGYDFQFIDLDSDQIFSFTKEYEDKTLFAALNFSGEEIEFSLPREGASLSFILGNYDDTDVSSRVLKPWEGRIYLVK
Assay: α-Glucosidase inhibitory assay (pNPG hydrolysis)
Type: biochemical
Conditions: read-out: α-Glucosidase Inhibition (%)
readout: inhibition at 100 µM (%)

1. CCCC[C@@H](CCCCCCCCCC(=O)OC)O[C@@H]1O[C@H](CO)[C@@H](O)[C@H](O)[C@H]1O[C@@H]1O[C@@H](C)[C@H](O[C@@H]2O[C@@H](C)[C@H](O[C@@H]3O[C@@H](C)[C@H](O)[C@@H](O)[C@H]3O)[C@@H](O[C@@H]3O[C@H](CO)[C@@H](O)[C@H](O)[C@H]3O)[C@H]2O)[C@@H](O)[C@H]1O [Compound 3, Cusponin III] | 67.1
2. CCCC[C@@H](CCCCCCCCCC(=O)OC)O[C@@H]1O[C@H](CO)[C@@H](O)[C@H](O)[C@H]1O[C@@H]1O[C@@H](C)[C@H](O[C@@H]2O[C@@H](C)[C@H](O[C@@H]3O[C@@H](C)[C@H](O)[C@@H](O[C@@H]4O[C@H](CO)[C@@H](O)[C@H](O)[C@H]4O)[C@H]3O)[C@@H](O)[C@H]2O)[C@@H](O)[C@H]1O [Compound 1, Cusponin I] | 68.7
3. CCCCC[C@@H](CCCCCCCCCC(=O)OC)O[C@@H]1O[C@H](CO)[C@@H](O)[C@H](O)[C@H]1O[C@@H]1O[C@@H](C)[C@H](O[C@@H]2O[C@@H](C)[C@H](O[C@@H]3O[C@@H](C)[C@H](O)[C@@H](O[C@@H]4O[C@H](CO)[C@@H](O)[C@H](O)[C@H]4O)[C@H]3O)[C@@H](O)[C@H]2O)[C@@H](O)[C@H]1O [Compound 2, Cusponin II] | 83
